molecular target: T1, human CD3 on CD3+ Jurkat cells (human, UniProt P07766 23-207); assay: flow cytometry, 100 nM IgG on CD3+ Jurkat cells, pH 6.0
T1 construct: whole, on cells; Native CD3 complex on cells; the other CD3 chains are not specified for this assay; also called Human CD3+ Jurkat
T1 sequence (P07766 23-207): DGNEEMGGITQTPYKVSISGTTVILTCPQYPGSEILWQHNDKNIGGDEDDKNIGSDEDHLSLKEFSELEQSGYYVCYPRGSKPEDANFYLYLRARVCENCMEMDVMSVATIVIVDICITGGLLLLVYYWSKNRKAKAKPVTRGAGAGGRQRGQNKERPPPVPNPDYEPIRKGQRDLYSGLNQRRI
OBSERVATION TYPE: MFI pH 6.0
In your response, put the unit directly after the numeric value.

| BINDER | MFI pH 6.0 |
| --- | --- |
| SAD10320_P03_D09 (ADI-48655) (antibody, V domains shown, IgG; also called Ab100) VH: QVQLVQSGAEVKKPGASVKVSCKASGFNIKDYYMHWVRQAPGQRLEWMGWIDLENANTIYDAKFQGRVTITRDTSASTAYMELSSLRSEDTAVYYCARDAYGHDFYDVWGQGTLVTVSS VL: DIVMTQSPDSLAVSLGERATINCKSSQSLLNARTGKNYLAWYQQKPGQPPKLLIYWASTRESGVPDRFSGSGSGTDFTLTISSLQAEDVAVYYCKQSWHRRTFGGGTKVEIK | 1180 MFI |
| LAD5224_P03_A01 (ADI-26906) (antibody, V domains shown, IgG; also called Ab1; parent clone) VH: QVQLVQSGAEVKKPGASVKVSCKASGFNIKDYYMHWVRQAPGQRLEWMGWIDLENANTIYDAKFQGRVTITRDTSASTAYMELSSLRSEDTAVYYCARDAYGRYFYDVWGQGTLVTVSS VL: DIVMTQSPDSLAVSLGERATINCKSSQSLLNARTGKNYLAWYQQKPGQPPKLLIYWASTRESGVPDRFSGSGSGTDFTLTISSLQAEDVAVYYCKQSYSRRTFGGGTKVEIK | 6040 MFI |

Here is the next item to consider.
The binder listed as SAD10319_P02_E05 (ADI-48630) (antibody, V domains shown, IgG; also called Ab4) VH: QVQLVQSGAEVKKPGASVKVSCKASGYTFDSYIMHWVRQAPGQRLEWMGWIDAGTGATVYSQKFQGRVTITRDTSASTAYMELSSLRSEDTAVYYCARDAYGHYFYDHWGQGTLVTVSS VL: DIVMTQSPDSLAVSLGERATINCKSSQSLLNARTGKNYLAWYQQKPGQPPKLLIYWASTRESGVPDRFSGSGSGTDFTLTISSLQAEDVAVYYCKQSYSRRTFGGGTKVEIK has a reported MFI pH 6.0 of 5540 MFI
